B1: PLAGL1 (parent)
chain: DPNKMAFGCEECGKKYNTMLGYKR

variants of: B1; assay: protein stability index of a GFP-peptide fusion (GPS, HEK-293T) (PSI 1-6); higher = more stable; conditions: c terminus: a fixed tail appended;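 also: lentivirally expressed fusions sorted by FACS into six bins by GFP to DsRed ratio, PSI derived from sequencing read proportions per bin multiplied by bin number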
Our labelling divides records by protein stability index into ranges: lower level = under 2, middle level = from 2 up to 3, upper level = 3 and over

Prompt: Bin this entry: DPNKMAFFCEECGKKYNTMLGYKR [G8F]
Completion: lower level

Prompt: Moving on to the next variant: DPNKMAFGCEECGKKYNTMLGYKN [R24N]
Completion: upper level

Prompt: Moving on to the next variant: DPNKMAFGCYECGKKYNTMLGYKR [E10Y]
Completion: lower level

Prompt: Moving on to the next variant: DPNKMAFGCEECGKKYNYMLGYKR [T18Y]
Completion: lower level

Prompt: Moving on to the next variant: DPNKMAFGCEECGKKYNTMLGYTR [K23T]
Completion: middle level

Prompt: Moving on to the next variant: DPNKMAFGCEECGKKYNTMLGTKR [Y22T]
Completion: middle level

Prompt: Moving on to the next variant: DPNKMAFGCEECVKKYNTMLGYKR [G13V]
Completion: lower level

Prompt: Moving on to the next variant: DPNKMAFGCEECGKKYNRMLGYKR [T18R]
Completion: middle level

Prompt: Moving on to the next variant: DPNKMAFGCEDCGKKYNTMLGYKR [E11D]
Completion: middle level

Prompt: Moving on to the next variant: DPNKMAFGCEECGKKYNTKLGYKR [M19K]
Completion: upper level

Prompt: Moving on to the next variant: DPNKMQFGCEECGKKYNTMLGYKR [A6Q]
Completion: middle level

Prompt: Moving on to the next variant: DPNKMAFGFEECGKKYNTMLGYKR [C9F]
Completion: upper level

Prompt: Moving on to the next variant: IPNKMAFGCEECGKKYNTMLGYKR [D1I]
Completion: middle level

Prompt: Moving on to the next variant: DPNKMAFGCEECGKKYNTALGYKR [M19A]
Completion: upper level

Prompt: Moving on to the next variant: DPNGMAFGCEECGKKYNTMLGYKR [K4G]
Completion: middle level

Prompt: Moving on to the next variant: DPNKMAFGCEECGKKYPTMLGYKR [N17P]
Completion: middle level

Prompt: Moving on to the next variant: DPNKMAFGCEECGKKYNTNLGYKR [M19N]
Completion: middle level

Prompt: Moving on to the next variant: DPNKMAFGCEHCGKKYNTMLGYKR [E11H]
Completion: middle level

Prompt: Moving on to the next variant: DPNKMYFGCEECGKKYNTMLGYKR [A6Y]
Completion: middle level
